# Tested System: human SOS1 (loading of human K-Ras^G12C-GDP with fluorescent GTP-analog) (Homo sapiens, UniProt Q07889)
# Test Details: Biochemical assay 3: K-Ras^G12C activation assay by hSOS1 (HTRF)
# Condition Details: read-out: Assay 3 (KRAS-Activation by SOS no GTP) activity expressed as % inhibition at 20 μM; no GTP; at 20 μM
Property Label: inhibition at 20 µM (%)
Write the value in % as a bare number.

Worked set:
Compound	Display Unit	Measurement
COc1cc2nc(C)nc(NC(C)c3cccc4cccnc34)c2cc1OC (stereo not drawn)	%	45
CCCOc1ccc(Cl)cc1-c1ccc([C@H](C)Nc2nc(C)nc3cc(OC)c(OC)cc23)s1 (stereo in doubt)	%	19
COc1cc2nc(C)nc(NC(C)c3cc4cccc(O)c4o3)c2cc1OC (stereo not drawn)	%	46
COc1cc2nc(C)nc(N[C@@H](C)c3ccc(-c4ccc5c(c4)OCCN5C)s3)c2cc1OC (stereo in doubt)	%	22
COc1cc2nc(C)nc(N[C@H](C)c3cccc(/C=C/C4CCCCC4)c3)c2cc1OC	%	33

Reported inhibition at 20 µM for `Cc1nc(N[C@H](C)c2cccc3ccccc23)c2ccccc2n1` was 22

Given item COc1cc(F)cc(-c2ccc([C@H](C)Nc3nc(C)nc4cc(OC)c(OC)cc34)s2)c1 (stereo in doubt) , the value recorded as its inhibition at 20 µM is 27

// COc1cc2nc(C)nc(NC(C)c3ccc(-c4ccccc4)o3)c2cc1OC (stereo not drawn) : inhibition at 20 µM value = 42

###

The reader will find reported IC50 values listed item by item below.
# Tested System: human SOS1 (nucleotide exchange of K-Ras^G12C) (Homo sapiens)
# Test Details: Biochemical assay 2: K-Ras^G12C activation assay by hSOS1 at high GTP concentration (HTRF)
# Condition Details: E-notation values; unit inferred; 50 μM GTP; read-out: Assay 2 (KRAS-Activation, high GTP) IC50
Kindly provide the numeric value in nM only, without the unit symbol.

get_value(item= COc1cc2nc(C)nc(NC(C)c3ccc(-c4ccccc4C(O)C(F)(F)F)s3)c2cc1OC (stereo not drawn) [Example 380] , readout=IC50) returns 1600

compound Cc1nc(NC(C)c2ccc(Br)s2)c2cc(NCCN3CCOCC3)ccc2n1 (stereo not drawn) [Example 425] , IC50 observed: 2560

Consider COc1cc2nc(C)nc(NC(C)c3ccc(-c4ccc(C(F)(F)F)cc4C)s3)c2cc1OC (stereo not drawn) [Example 386] . Its measured IC50 is 3660

Briefly, IC50 measured for COc1cc2nc(C)nc(N[C@H](C)c3cccc(-c4ccccc4CC(N)=O)c3)c2cc1OC [Example 393] : 975

Notebook: Cc1nc(NC(C)c2ccc(-c3ccccc3CN(C)C)s2)c2cc(N3CCN(C)C(=O)C3)ccc2n1 (stereo not drawn) [Example 435] , IC50 read as 51.9

###

# Tested System: K-Ras^G12C : hSOS1 interaction (Homo sapiens, UniProt Q07889)
# Test Details: Biochemical assay 1: K-Ras^G12C interaction assay with hSOS1 (HTRF)
# Format: binding
# Condition Details: read-out: Assay 1 (KRAS-SOS Interaction) activity expressed as IC50
// values below are reported log10 IC50
Reminder: these figures are log10 of reported IC50, in µM before transformation.

Solved cases below.
Compound	log10 IC50
COc1cc2nc(C)nc(NC(C)c3ccc(-c4ccc(CN)s4)s3)c2cc1OC (centres unmarked)	0.15
COc1cc2nc(C)nc(NC(C)c3ccc(-c4cc(C)n(C)c4C#N)s3)c2cc1OC (centres unmarked)	1.22
COc1cc2nc(C)nc(N[C@H](C)c3cccc(C4CC4(C)C)c3)c2cc1OC (some centres unmarked)	0.25
COc1cc2nc(C)nc(N[C@H](C)c3cccc(-c4cncc(C)c4)c3)c2cc1OC	-0.01
COC(=O)CNCc1ccccc1-c1ccc(C(C)Nc2nc(C)nc3cc(OC)c(OC)cc23)s1 (centres unmarked)	-0.25

The compound listed as COc1cc2nc(C)nc(N[C@@H](C)c3ccc(-c4ccc5cc[nH]c5c4)s3)c2cc1OC (racemic) shows log10 IC50 equal to 0.62

According to the records, this compound COc1cc2nc(C)nc(N[C@@H](C)c3ccc(-c4cccc(CNS(C)(=O)=O)c4)s3)c2cc1OC (racemic) displays log10 IC50 of 0.67

Quick note, log10 IC50 for COc1cc2nc(C)nc(N[C@@H](C)c3ccc(-c4csc5ccccc45)s3)c2cc1OC (racemic) landed at 0.89

log10 IC50 for COc1cc2nc(C)nc(NC(C)c3ccc(-c4cnn(CCO)c4)s3)c2cc1OC (centres unmarked) is 0.29

log10 IC50 for COc1cc2nc(C)nc(NC(C)c3ccc(-c4cc[nH]n4)s3)c2cc1OC (centres unmarked) is 0.59

For this compound ( COc1cc2nc(C)nc(N[C@@H](C)c3ccc(-c4cccc(C(=O)N(C)C)c4)s3)c2cc1OC (racemic) ), measured log10 IC50 is 0.75
